Each entry below lists one item and its recorded Binding AUC value.
Study Target: T1, SARS-CoV-2 S1 (40591-V08H3, Sino Biological) (SARS-CoV-2, UniProt P0DTC2 16-685)
T1 construct: domain: S1
Experiment Summary: ELISA on coated protein, anti-human IgG-HRP; AUC of the OD

| Binder | Binding AUC |
| --- | --- |
| 1242F4 (antibody, V domains shown, Recombinant human IgG1) VH: EVQLVQSGAEVKKPGTSVKVSCKASGNTVADYYMHWVRQAPRQGLEWVGLINPSGSGTAYAQNFQGRVTLTRDTSTSTLYMELGSLGSEDTAIYYCARMDSSGTYDVWGQGTLVTVSS VL: EIVLTQSPGTLSLSPGERATLSCRASQSIRSGYLAWYQQKPGQAPRLLIRGASVKATGIPDRFSGSGSGTDFTLTISRLEPEDFVVYYCQHFASSPPRYTFGQGTKLEIK | 1.3 |
| 1242C6 (antibody, V domains shown, Recombinant human IgG1) VH: EVQLVQSGAEVKKPGASVKVSCKASGFTFSDYYMHWVRQAPRQGLEWMGLINPSGSGTAYAQNFQGRVTLTRDTSTSTLYMEMGSLTSDDTAVYYCARMDSSGSYDHWGQGTLVTVSS VL: DIVMTQSPGTLSLSPGDRATLSCRASQTIRISYLAWYQQKPGQAPRLLVYGPSIRATGIPDRFSASGSGTDFTLTISRLEPEDFAVYYCQHYGSSPPRYTFGQGTKLEIK | 0.8 |
| 1249A8 (antibody, V domains shown) VH: QVQLVQSGAEVKKPGASMKVSCKASGFTFTDYYMHWVRQAPRQGLEWMGLINPSGSGTAYAQNFQGRVTLARDTSTSTLYMEMGSLTSDDTAVYYCARMDSSGSYDHWGQGTLVTVSS VL: ETTLTQSPGTLSLSPGDRATLSCRASQTIRISYLAWYQQKPGQAPRLLVYGPSIRATGIPDRFSARGSGTDFTLTISRLEPEDFAVYYCQHYGSSPPRYTFGQGTKLEIK | 1.4 |
